target: EGFR (Homo sapiens, UniProt P00533); construct: Add 7 ug A431 cell lysate per well (EGFR source); endogenous in cells; host or cells: A431; assay: EGFR ELISA assay (in vitro kinase activity, EGFR captured from A431 cell lysate); type: biochemical; set-up: concentration or dose not given beside the values
Sequence (P00533 25-1210): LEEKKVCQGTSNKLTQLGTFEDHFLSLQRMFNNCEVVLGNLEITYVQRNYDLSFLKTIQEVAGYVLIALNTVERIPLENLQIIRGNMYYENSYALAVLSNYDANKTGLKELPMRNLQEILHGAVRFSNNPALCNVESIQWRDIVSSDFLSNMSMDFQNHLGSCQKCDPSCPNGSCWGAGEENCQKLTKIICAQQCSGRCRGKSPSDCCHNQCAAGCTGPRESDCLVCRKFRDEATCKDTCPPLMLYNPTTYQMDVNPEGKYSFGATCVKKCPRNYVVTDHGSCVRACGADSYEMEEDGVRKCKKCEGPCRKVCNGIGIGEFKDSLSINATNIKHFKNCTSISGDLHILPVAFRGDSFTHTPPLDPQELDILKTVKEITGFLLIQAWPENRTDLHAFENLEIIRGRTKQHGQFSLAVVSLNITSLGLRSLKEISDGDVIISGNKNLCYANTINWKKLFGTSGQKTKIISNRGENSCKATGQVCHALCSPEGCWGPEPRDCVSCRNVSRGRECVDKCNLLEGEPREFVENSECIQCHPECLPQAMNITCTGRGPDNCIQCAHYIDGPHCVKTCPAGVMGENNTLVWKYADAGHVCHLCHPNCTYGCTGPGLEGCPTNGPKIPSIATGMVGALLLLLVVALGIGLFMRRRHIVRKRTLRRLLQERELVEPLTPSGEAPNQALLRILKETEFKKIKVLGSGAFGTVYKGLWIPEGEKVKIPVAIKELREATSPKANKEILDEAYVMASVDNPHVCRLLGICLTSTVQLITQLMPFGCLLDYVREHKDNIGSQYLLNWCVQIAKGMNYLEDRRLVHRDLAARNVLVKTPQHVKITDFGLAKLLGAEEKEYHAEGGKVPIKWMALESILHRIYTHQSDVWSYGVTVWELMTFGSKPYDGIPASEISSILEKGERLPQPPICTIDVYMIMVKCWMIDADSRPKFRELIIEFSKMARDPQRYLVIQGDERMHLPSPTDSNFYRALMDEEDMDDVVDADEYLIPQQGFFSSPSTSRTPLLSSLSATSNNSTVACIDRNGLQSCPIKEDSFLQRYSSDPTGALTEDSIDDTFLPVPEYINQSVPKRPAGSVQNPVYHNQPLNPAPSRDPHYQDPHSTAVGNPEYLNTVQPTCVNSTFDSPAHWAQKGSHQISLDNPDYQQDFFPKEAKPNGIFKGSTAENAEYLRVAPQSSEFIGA
MEASURED ENDPOINT: Biochem EGFR %Inhibition (%)
Reply numerically in %, unit not repeated.

Entry CNS(=O)(=O)c1ccc2c(c1)C(=Cc1ccc([N+](=O)[O-])cc1)C(=O)N2 [10734/D06] has what Biochem EGFR %Inhibition?
1.3

Entry COc1c(C)cc(C=C2C(=O)Nc3c(Br)cc(Br)cc32)cc1C [10733/A06] has what Biochem EGFR %Inhibition?
45.1

Entry Cc1cc(C)c(C=C2C(=O)Nc3ccc(CCCl)cc32)[nH]1 [10721/G08] has what Biochem EGFR %Inhibition?
12.8

Entry CC(C)c1ccc2occ(C=C3C(=O)Nc4ccc(S(=O)(=O)N5CCOCC5)cc43)c(=O)c2c1 [10731/F05] has what Biochem EGFR %Inhibition?
19.5

Entry O=C1Nc2c(Br)cc(Br)cc2C1=Cc1coc2ccc([N+](=O)[O-])cc2c1=O [10731/A07] has what Biochem EGFR %Inhibition?
39.4

Entry CC(C)c1cc(C=C2C(=O)Nc3ccc(S(=O)(=O)Nc4ccc(C(F)(F)F)cc4)cc32)cc(C(C)C)c1O [10724/E06] has what Biochem EGFR %Inhibition?
1.6

Entry CC(=O)n1cc(C=C2C(=O)Nc3ccc(I)cc32)c2ccccc21 [10730/B05] has what Biochem EGFR %Inhibition?
8.5

Entry O=C1Nc2ccc(I)cc2C1=CC(c1cccs1)C(F)(F)F (stereo not drawn) [10732/B02] has what Biochem EGFR %Inhibition?
-26.0

Entry N#Cc1ccc(C=C2C(=O)Nc3ccc(CCCl)cc32)cc1 [10727/G09] has what Biochem EGFR %Inhibition?
-9.7
